assayProtocol: Cytotoxicity, cell viability assay in normal cells
Format: cell-based
assaySetup: human, normal B-cells from healthy donors, B-cells, Con. 0.015625 μM, fraction of 0 μM control; read-out: relative cell viability (Fig 6c), replicates
measurementLabel: viability at 0.015625 μM (%)
The reply should contain only the number, in %.

A selection of reference data follows.
C[C@H](NC(=O)c1c(N)nn2cccnc12)c1cc2cccc(C#Cc3cnn(C)c3)c2c(=O)n1-c1ccccc1: 118
CC[C@H](Nc1ncnc2[nH]cnc12)c1nc2cccc(F)c2c(=O)n1-c1ccccc1: 103
C[C@H](Nc1ncnc2nc[nH]c12)c1cc2cccc(Cl)c2c(=O)n1-c1ccccc1: 80.4

Proceeding to the next compound to report its viability at 0.015625 μM.
[in] Reported viability at 0.015625 μM, compound COc1c(OCCCN2CCOCC2)ccc2c1N=C(NC(=O)c1cnc(N)nc1)N1CCN=C21 : ____
[out] 91.4

====

assayProtocol: Cytotoxicity, cell viability assay in normal cells
Format: cell-based
assaySetup: human, B-cells, Con. 1 μM, fraction of 0 μM control; read-out: relative cell viability (Fig 6c), replicates
measurementLabel: viability at 1 μM

[in] Reported viability at 1 μM, molecule COC(=O)C12OCC34C(CC5C(C)=C(OC(=O)CNC(=O)OC(C)(C)C)C(=O)CC5(C)C3C(O)C1O)OC(=O)C(OC(=O)C=C(C)C)C24 (stereo not shown) : ____
[out] 91.6%

====

Tested on: Raji cells
assayProtocol: Cell viability assay (CellTiter-Glo luminescence)
Type: cell-based, human
assaySetup: Homo sapiens, read-out: relative cell viability (Fig 6f), replicates, Raji, Con. 0.625 μM, fraction of 0 μM control
# viability at 0.625 µM annotations
The reply should contain only the number, in %.

COC(=O)C12OCC34C(CC5C(C)=C(OC(=O)CNC(=O)OC(C)(C)C)C(=O)CC5(C)C3C(O)C1O)OC(=O)C(OC(=O)C=C(C)C)C24 (centres unmarked) [#15]: 10.3
COC(=O)C12OCC34C(CC5C(C)=C(OC(=O)CC(C)N)C(=O)CC5(C)C3C(O)C1O)OC(=O)C(OC(=O)C=C(C)C)C24 (centres unmarked) [#26]: 7.06
COc1c(OCCCN2CCOCC2)ccc2c1N=C(NC(=O)c1cnc(N)nc1)N1CCN=C21 [Copanlisib]: 67.9
C[C@H](NC(=O)c1c(N)nn2cccnc12)c1cc2cccc(C#Cc3cnn(C)c3)c2c(=O)n1-c1ccccc1 [IPI-549]: 122

Proceeding to the next molecule to report its viability at 0.625 µM.
[in] Reported viability at 0.625 µM, molecule C[C@H](Nc1ncnc2nc[nH]c12)c1cc2cccc(Cl)c2c(=O)n1-c1ccccc1 [Duvelisib] : ____
[out] 99.1

====

Tested on: Raji cells
assayProtocol: Cell viability assay (CellTiter-Glo luminescence)
Type: cell-based, human
assaySetup: Homo sapiens, analogs, 72 h, Fig. 5c, read-out: IC50
# pIC50 annotations
Just so you know, pIC50 here is -log10 of the concentration in molar units; reply with that number alone.

A selection of reference data follows.
COC(=O)C12OCC34C(CC5C(C)=C(OC(=O)C(N)Cc6ccccc6)C(=O)CC5(C)C3C(O)C1O)OC(=O)C(OC(=O)C=C(C)C)C24 (stereo not drawn): 7.41
COC(=O)C12OCC34C(CC5C(C)=C(OC(=O)CC(C)N)C(=O)CC5(C)C3C(O)C1O)OC(=O)C(OC(=O)C=C(C)C)C24 (stereo not drawn): 7.42

Proceeding to the next compound to report its pIC50.
[in] Reported pIC50, compound COC(=O)C12OCC34C(CC5C(C)=C(OC(=O)C6CCCN6)C(=O)CC5(C)C3C(O)C1O)OC(=O)C(OC(=O)C=C(C)C)C24 (stereo not drawn) : ____
[out] 7.44

====

assayProtocol: Cytotoxicity, cell viability assay in normal cells
Type: cell-based
assaySetup: human, relative cell viability (Fig 6b), replicates
measurementLabel: viability at 0.015625 μM (%)
The reply should contain only the number, in %.

[in] Reported viability at 0.015625 μM, compound COC(=O)C12OCC34C(CC5C(C)=C(OC(=O)CC(C)N)C(=O)CC5(C)C3C(O)C1O)OC(=O)C(OC(=O)C=C(C)C)C24 (stereo not shown) : ____
[out] 81.6

====

assayProtocol: Cytotoxicity, cell viability assay in normal cells
Format: cell-based, human
assaySetup: human, relative cell viability (Fig 6a), replicates
measurementLabel: viability at 0.015625 μM
Put your answer as a value accompanied by its unit after it.

[in] Reported viability at 0.015625 μM, compound COC(=O)C12OCC34C(CC5C(C)=C(OC(=O)CC(C)N)C(=O)CC5(C)C3C(O)C1O)OC(=O)C(OC(=O)C=C(C)C)C24 (stereo not shown) [#26] : ____
[out] 83.1%

====

assayProtocol: Cytotoxicity, cell viability assay in normal cells
Assay type: cell-based
assaySetup: human, normal T-cells from healthy donors, T-cells, Con. 1 μM, fraction of 0 μM control; read-out: relative cell viability (Fig 6b), replicates
# viability at 1 μM annotations
The reply should contain only the number, in %.

CC[C@H](Nc1ncnc2[nH]cnc12)c1nc2cccc(F)c2c(=O)n1-c1ccccc1 [Idelalisib]: 98.7
C[C@H](NC(=O)c1c(N)nn2cccnc12)c1cc2cccc(C#Cc3cnn(C)c3)c2c(=O)n1-c1ccccc1 [IPI-549]: 115
COc1c(OCCCN2CCOCC2)ccc2c1N=C(NC(=O)c1cnc(N)nc1)N1CCN=C21 [Copanlisib]: 79.9

Proceeding to the next compound to report its viability at 1 μM.
[in] Reported viability at 1 μM, compound C[C@H](Nc1ncnc2nc[nH]c12)c1cc2cccc(Cl)c2c(=O)n1-c1ccccc1 [Duvelisib] : ____
[out] 93.2

====

System: MOLM14 cells
assayProtocol: Cell viability assay (CellTiter-Glo luminescence)
Assay type: cell-based
assaySetup: Homo sapiens, MOLM-14, read-out: relative cell viability (Fig 6e), replicates, MOLM14, Con. 0.0390625 μM, fraction of 0 μM control
measurementLabel: viability at 0.0390625 µM (%)
The reply should contain only the number, in %.

COC(=O)C12OCC34C(CC5C(C)=C(OC(=O)CNC(=O)OC(C)(C)C)C(=O)CC5(C)C3C(O)C1O)OC(=O)C(OC(=O)C=C(C)C)C24 (stereo not shown): 15
COC(=O)C12OCC34C(CC5C(C)=C(OC(=O)CC(C)N)C(=O)CC5(C)C3C(O)C1O)OC(=O)C(OC(=O)C=C(C)C)C24 (stereo not shown): 12.5
COc1c(OCCCN2CCOCC2)ccc2c1N=C(NC(=O)c1cnc(N)nc1)N1CCN=C21: 59

[in] Reported viability at 0.0390625 µM, compound C[C@H](Nc1ncnc2nc[nH]c12)c1cc2cccc(Cl)c2c(=O)n1-c1ccccc1 : ____
[out] 122

====

assayProtocol: Cytotoxicity, cell viability assay in normal cells
Assay type: cell-based, human
assaySetup: human, PBMC, Con. 0.0625 μM, fraction of 0 μM control; read-out: relative cell viability (Fig 6a), replicates
measurementLabel: viability at 0.0625 μM (%)
The reply should contain only the number, in %.

A selection of reference data follows.
COC(=O)C12OCC34C(CC5C(C)=C(OC(=O)CNC(=O)OC(C)(C)C)C(=O)CC5(C)C3C(O)C1O)OC(=O)C(OC(=O)C=C(C)C)C24 (centres unmarked): 74.9
C[C@H](Nc1ncnc2nc[nH]c12)c1cc2cccc(Cl)c2c(=O)n1-c1ccccc1: 92.6

[in] Reported viability at 0.0625 μM, compound CC[C@H](Nc1ncnc2[nH]cnc12)c1nc2cccc(F)c2c(=O)n1-c1ccccc1 : ____
[out] 83.8

[in] Reported viability at 0.0625 μM, compound COc1c(OCCCN2CCOCC2)ccc2c1N=C(NC(=O)c1cnc(N)nc1)N1CCN=C21 : ____
[out] 73

[in] Reported viability at 0.0625 μM, compound C[C@H](NC(=O)c1c(N)nn2cccnc12)c1cc2cccc(C#Cc3cnn(C)c3)c2c(=O)n1-c1ccccc1 : ____
[out] 102

====

# viability at 0.00390625 μM annotations
assayProtocol: Cytotoxicity, cell viability assay in normal cells
Assay type: cell-based
assaySetup: human, normal T-cells from healthy donors, T-cells, Con. 0.00390625 μM, fraction of 0 μM control; read-out: relative cell viability (Fig 6b), replicates

COc1c(OCCCN2CCOCC2)ccc2c1N=C(NC(=O)c1cnc(N)nc1)N1CCN=C21: 102%

[in] Reported viability at 0.00390625 μM, molecule C[C@H](Nc1ncnc2nc[nH]c12)c1cc2cccc(Cl)c2c(=O)n1-c1ccccc1 : ____
[out] 100%

[in] Reported viability at 0.00390625 μM, molecule CC[C@H](Nc1ncnc2[nH]cnc12)c1nc2cccc(F)c2c(=O)n1-c1ccccc1 : ____
[out] 102%

[in] Reported viability at 0.00390625 μM, molecule C[C@H](NC(=O)c1c(N)nn2cccnc12)c1cc2cccc(C#Cc3cnn(C)c3)c2c(=O)n1-c1ccccc1 : ____
[out] 107%
